Provide the recorded Albumin IC50 Donor 1 for the entries that follow.
- System: human Liver-Chip (primary human hepatocytes)
- Method description: Liver-Chip albumin production in top channel effluent (ELISA)
- Type: cell-based
- Applied conditions: expanded drug list; lowest multiplier causing a 50% reduction in albumin production; donor 1

Enquiry: # get_value(readout='Albumin IC50 Donor 1', item= CC(CCc1ccccc1)NCC(O)c1ccc(O)c(C(N)=O)c1 (stereo not shown) )
Return: 26 unbound human Cmax multiplier

Enquiry: # get_value(readout='Albumin IC50 Donor 1', item= CCOC(=O)CN[C@@H](C(=O)N1CC[C@H]1C(=O)NCc1ccc(/C(N)=N\O)cc1)C1CCCCC1 )
Return: 32 unbound human Cmax multiplier

Enquiry: # get_value(readout='Albumin IC50 Donor 1', item= CC[C@H]1OC(=O)[C@H](C)C(=O)[C@H](C)[C@@H](O[C@@H]2O[C@H](C)C[C@H](N(C)C)[C@H]2O)[C@](C)(OC)C[C@@H](C)C(=O)[C@H](C)[C@H]2N(CCCCn3cnc(-c4cccnc4)c3)C(=O)O[C@]12C )
Return: 13 unbound human Cmax multiplier

Enquiry: # get_value(readout='Albumin IC50 Donor 1', item= Cc1cn([C@H]2C=C[C@@H](CO)O2)c(=O)[nH]c1=O )
Return: > 60 unbound human Cmax multiplier

Enquiry: # get_value(readout='Albumin IC50 Donor 1', item= C[C@]12CC[C@@H]3c4ccc(O)cc4CC[C@H]3[C@@H]1CC[C@@H]2O )
Return: >300 unbound human Cmax multiplier

Enquiry: # get_value(readout='Albumin IC50 Donor 1', item= O=C(NC1CCN(CCCCC2(C(=O)NCC(F)(F)F)c3ccccc3-c3ccccc32)CC1)c1ccccc1-c1ccc(C(F)(F)F)cc1 [Lomitapide] )
Return: 4 unbound human Cmax multiplier

Enquiry: # get_value(readout='Albumin IC50 Donor 1', item= CC(c1cc2ccccc2s1)N(O)C(N)=O (stereo not shown) )
Return: > 100 unbound human Cmax multiplier

====

Provide the recorded Chip MOS both donors for the entries that follow.
- System: human Liver-Chip
- Method description: Liver-Chip DILI prediction: minimum toxic concentration and margin of safety (MOS)-like figure;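 also: Toxic concentration is the lowest across albumin IC50 and ALT and morphology endpoints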
- Applied conditions: free IC50 concentration in the assay divided by total concentration of drug in human plasma at Cmax; both donors
Keep it simple and answer with nothing but the number.

Enquiry: Give Chip MOS both donors (human Liver-Chip) of the following compound: CCOC(=O)CN[C@@H](C(=O)N1CC[C@H]1C(=O)NCc1ccc(/C(N)=N\O)cc1)C1CCCCC1
Return: 30

Enquiry: Give Chip MOS both donors (human Liver-Chip) of the following compound: Cc1c(C)c2c(c(C)c1O)CCC(C)(COc1ccc(CC3SC(=O)NC3=O)cc1)O2 (stereo not shown)
Return: 0.03

Enquiry: Give Chip MOS both donors (human Liver-Chip) of the following compound: O=c1[nH]c(=O)n([C@@H]2O[C@H](CO)[C@@H](O)[C@@H]2F)cc1I [Fialuridine]
Return: 0.1

Enquiry: Give Chip MOS both donors (human Liver-Chip) of the following compound: Cc1cc2c(cc1CC(=O)c1sccc1S(=O)(=O)Nc1onc(C)c1Cl)OCO2
Return: 0.04

Enquiry: Give Chip MOS both donors (human Liver-Chip) of the following compound: CC(c1cc2ccccc2s1)N(O)C(N)=O (stereo not shown)
Return: 15

Enquiry: Give Chip MOS both donors (human Liver-Chip) of the following compound: CN1CCN(C2=Nc3cc(Cl)ccc3Nc3ccccc32)CC1
Return: 1.8

Enquiry: Give Chip MOS both donors (human Liver-Chip) of the following compound: Cc1cn([C@H]2C=C[C@@H](CO)O2)c(=O)[nH]c1=O
Return: 107

Enquiry: Give Chip MOS both donors (human Liver-Chip) of the following compound: CC(CCc1ccccc1)NCC(O)c1ccc(O)c(C(N)=O)c1 (stereo not shown)
Return: 22

Enquiry: Give Chip MOS both donors (human Liver-Chip) of the following compound: CC(C(=O)O)c1ccc2oc(-c3ccc(Cl)cc3)nc2c1 (stereo not shown)
Return: 0.001

Enquiry: Give Chip MOS both donors (human Liver-Chip) of the following compound: Cc1ccc(C(=O)c2cc(O)c(O)c([N+](=O)[O-])c2)cc1
Return: 0.004

Enquiry: Give Chip MOS both donors (human Liver-Chip) of the following compound: CCc1ccc(CCOc2ccc(CC3SC(=O)NC3=O)cc2)nc1 (stereo not shown)
Return: 2.8
